Data origin: ChEMBL document CHEMBL5154816

- Test Method Notes: Cytotoxicity against human HFL1 cells assessed as cell growth inhibition incubated for 72 hrs by Cell titre Glo-luminiscence cell viability assay
- Assay type: toxicity, cell-based
Assay Readout: IC50 at 72 h (µM)
Write the number in µM without appending the unit.

Req: Using the record for Cc1cc(F)cc(C)c1Oc1ccc(C(C)(C)O)cc1-c1cn(C)c(=O)c2cc(-c3cnc(C4CCCC4)[nH]3)oc12 , report its IC50 at 72 h.
Resp: 4.6

====

- Study Target: Bromodomain-containing protein 2 (Homo sapiens)
- Sequence (P25440 whole entry, looked up, the tested form may be a part): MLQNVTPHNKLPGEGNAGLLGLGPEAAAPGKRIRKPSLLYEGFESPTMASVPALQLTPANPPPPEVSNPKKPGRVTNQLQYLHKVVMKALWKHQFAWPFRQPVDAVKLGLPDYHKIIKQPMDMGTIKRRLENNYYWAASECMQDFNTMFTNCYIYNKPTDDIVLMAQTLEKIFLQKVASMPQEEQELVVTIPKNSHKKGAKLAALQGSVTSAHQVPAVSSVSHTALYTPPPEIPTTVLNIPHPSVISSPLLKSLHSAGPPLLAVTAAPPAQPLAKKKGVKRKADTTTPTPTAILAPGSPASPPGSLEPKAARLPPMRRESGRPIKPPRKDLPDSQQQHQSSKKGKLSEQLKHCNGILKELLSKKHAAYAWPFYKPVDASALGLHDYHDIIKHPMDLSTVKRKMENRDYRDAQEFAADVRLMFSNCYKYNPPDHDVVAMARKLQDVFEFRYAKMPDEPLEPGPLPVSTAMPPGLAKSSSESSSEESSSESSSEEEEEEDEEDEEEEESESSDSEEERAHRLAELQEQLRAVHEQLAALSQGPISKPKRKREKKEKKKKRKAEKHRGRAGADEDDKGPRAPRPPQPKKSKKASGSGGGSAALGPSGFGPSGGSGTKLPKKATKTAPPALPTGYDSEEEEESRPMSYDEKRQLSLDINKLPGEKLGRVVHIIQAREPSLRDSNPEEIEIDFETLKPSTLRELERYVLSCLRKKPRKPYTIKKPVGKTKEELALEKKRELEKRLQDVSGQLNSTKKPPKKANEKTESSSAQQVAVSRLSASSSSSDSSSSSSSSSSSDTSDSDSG
- Test Method Notes: Binding affinity to His6-fused BRD2 BD1 (unknown origin) assessed as change in melting temperature at 100 uM incubated for 30 mins by thermal shift assay
Form field: ΔTm (one value per entry).
Answer format: numeric, °C implied, no suffix.

Mol | Assay Result
Cc1cc(F)cc(C)c1Oc1ccc(C(C)(C)O)cc1-c1cn(C)c(=O)c2cc(-c3cnc(C4CCCCC4)[nH]3)oc12 | 1

Req: # lookup: ΔTm of Cc1cc(F)cc(C)c1Oc1ccc(C(C)(C)O)cc1-c1cn(C)c(=O)c2cc(-c3cnc(C4CCC4)[nH]3)oc12
Resp: 3

Req: Try this compound too: Cc1cc(F)cc(C)c1Oc1ccc(C(C)(C)O)cc1-c1cn(C)c(=O)c2cc(-c3cnc(C4CCCC4)[nH]3)oc12
Resp: 2

Req: // same read-out, input: Cc1cc(F)cc(C)c1Oc1ccc(C(C)(C)O)cc1-c1cn(C)c(=O)c2cc(-c3cnc(C4CC4)[nH]3)oc12
Resp: 3.5
